- ASSAY TEXT: Primary qHTS Assay for Foot and Mouth Disease Virus Antivirals against NCGC Sytravon and CBC Compound Libraries: Firefly Luciferase Signal; note: nearly all actives have a fitted effect of over 60% in size
- APPLIED CONDITIONS: FMDV antiviral cell assay; series mostly up to 57.5 µM
Screen size: about 120,000 compounds; about 270 (0.23%) were called active. Inconclusive results (about 5%) are left out. The list comes from a sample in which actives are over-represented; it also holds close analogues and randomly drawn compounds.
RECORDED ENDPOINT: outcome

Illustrative cases are given below, each with its answer.
COc1ccccc1-c1nc(C#N)c(NCc2ccccc2)o1
inactive
Cc1ccccc1NC(=O)Cn1cc(C(=O)c2cccs2)c2ccccc21
inactive
CCCCC(CC)CNC(=O)CCCCn1c(=O)[nH]c2ccsc2c1=O (stereo unspecified)
inactive
Cc1ccc(-c2ccc(CCC(=O)O)n2NC(=O)c2ccc(F)cc2)cc1
inactive
COc1ccc(/C=C2\CCc3ccccc3C2=O)cc1Br
inactive

Shifting focus to the compound that follows.
Could you tell me which outcome is on file for `CCCCn1c(=O)[nH]c(=O)c2c1nc(-c1ccc(OCC#N)c(OC)c1)n2C` ?
inactive

----------
- ASSAY TEXT: Primary qHTS Assay for Foot and Mouth Disease Virus Antivirals against NCGC Sytravon and CBC Compound Libraries: Firefly Luciferase Signal; note: nearly all actives have a fitted effect of over 60% in size
- APPLIED CONDITIONS: FMDV antiviral cell assay; series mostly up to 57.5 µM
Screen size: about 120,000 compounds; about 270 (0.23%) were called active. Roughly 5% stayed inconclusive and do not appear here. Many of the other results were omitted from the sample, so actives are more common in it than they were.
RECORDED ENDPOINT: outcome

N#C/C(=C/c1ccco1)c1nc2ccccc2[nH]1
inactive
O=C(/C=C/c1ccc(Cl)cc1)OC1CCCCC1=O (stereo not drawn)
inactive
O=C(Nc1cccc(I)c1)c1ccc2c3c(cccc13)CC2
inactive
